system.tested: F508delCFTR cell surface expression in CFBE41o-F508delCFTR-HRP cells (Homo sapiens, UniProt P13569, DEL508-508)
Construct: fused on or other part: Horseradish peroxidase (HRP) reporter inserted in the fourth exofacial (extracellular) loop of CFTR; expression is doxycycline-inducible
Sequence (P13569 with tags, fused parts or gaps DEL508-508 limits assumed): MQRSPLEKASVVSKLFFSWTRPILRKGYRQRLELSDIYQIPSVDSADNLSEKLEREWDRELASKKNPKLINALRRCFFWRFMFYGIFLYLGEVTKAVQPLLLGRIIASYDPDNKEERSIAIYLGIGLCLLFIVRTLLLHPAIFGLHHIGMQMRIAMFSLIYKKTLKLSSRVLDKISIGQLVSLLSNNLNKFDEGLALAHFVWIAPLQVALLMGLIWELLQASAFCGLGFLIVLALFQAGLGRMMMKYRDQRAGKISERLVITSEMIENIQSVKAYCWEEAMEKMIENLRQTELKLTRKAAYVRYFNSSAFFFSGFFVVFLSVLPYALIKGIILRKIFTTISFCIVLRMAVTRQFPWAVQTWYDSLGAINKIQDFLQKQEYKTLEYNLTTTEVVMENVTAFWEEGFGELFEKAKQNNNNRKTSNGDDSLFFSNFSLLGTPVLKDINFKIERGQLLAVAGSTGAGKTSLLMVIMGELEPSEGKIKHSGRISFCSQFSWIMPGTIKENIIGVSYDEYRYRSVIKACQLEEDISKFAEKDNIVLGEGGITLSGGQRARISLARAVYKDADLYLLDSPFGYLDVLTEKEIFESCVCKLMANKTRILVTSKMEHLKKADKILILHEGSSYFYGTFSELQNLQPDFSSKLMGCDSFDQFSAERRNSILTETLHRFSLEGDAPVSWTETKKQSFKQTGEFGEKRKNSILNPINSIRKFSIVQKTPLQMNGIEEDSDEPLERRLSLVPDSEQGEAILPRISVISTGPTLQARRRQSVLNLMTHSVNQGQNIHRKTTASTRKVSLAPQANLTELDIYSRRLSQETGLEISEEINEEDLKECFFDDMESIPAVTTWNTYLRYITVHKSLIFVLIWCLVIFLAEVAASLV
Sequence (P13569 919-1480 limits assumed, stated change not applied): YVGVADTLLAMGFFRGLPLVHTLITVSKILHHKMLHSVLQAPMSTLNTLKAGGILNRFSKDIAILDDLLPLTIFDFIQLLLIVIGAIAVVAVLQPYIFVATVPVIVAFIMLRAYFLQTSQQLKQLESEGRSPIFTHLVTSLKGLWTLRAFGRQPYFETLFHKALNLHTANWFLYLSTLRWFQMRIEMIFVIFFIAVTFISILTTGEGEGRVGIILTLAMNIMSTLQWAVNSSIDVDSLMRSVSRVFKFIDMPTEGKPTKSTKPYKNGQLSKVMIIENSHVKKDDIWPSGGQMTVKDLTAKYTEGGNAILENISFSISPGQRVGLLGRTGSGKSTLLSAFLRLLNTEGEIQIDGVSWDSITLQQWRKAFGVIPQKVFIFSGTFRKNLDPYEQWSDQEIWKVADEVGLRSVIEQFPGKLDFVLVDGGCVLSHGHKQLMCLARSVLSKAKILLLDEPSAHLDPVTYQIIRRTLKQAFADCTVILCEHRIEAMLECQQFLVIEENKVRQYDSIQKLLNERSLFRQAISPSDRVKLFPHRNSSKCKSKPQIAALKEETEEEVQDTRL
experiment: Cell Surface Expression-Horse Radish Peroxidase (CSE-HRP) Assay
measurement.context: CFBE41o-F508delCFTR-HRP cells, 18-24 hours at 33° C., 8-point curve, highest concentration 20 μM
Measured EC50, listed per entry for reference.
measured.parameter: EC50 (µM)

[[record]]
molecule = "COc1ccc2c(c1)O[C@@H](c1nnn[nH]1)C[C@H]2NC(=O)[C@@]1(C)COc2cc3c(cc21)OC(F)(F)O3"
readout_qualifier = ">"
test_value = 20

[[record]]
molecule = "CCOC(=O)C1(CN)CCC([C@H]2C[C@@H](NC(=O)[C@@]3(C)COc4cc5c(cc43)OC(F)(F)O5)c3ccc(OC(F)(F)F)cc3O2)CC1 (stereo partly drawn)"
readout_qualifier = "="
test_value = 0.64

[[record]]
molecule = "C[C@]1(C(=O)Nc2cnc(N3CCC[C@H]3C(=O)O)cn2)COc2cc3c(cc21)OC(F)(F)O3"
readout_qualifier = "="
test_value = 8.29


# credit: patent US9840513B2
